Collected pIC50 values appear next to each entry.
- methodDescription: Inhibition of HIV1 reverse transcriptase K103N mutant by HeLa-MAGI assay
pIC50: −log10 of the molar value.
attributeMeasured: pIC50

INSERT INTO measurements (cpdsmiles, assayvalue) VALUES
  ('CCc1s/c(=N\S(=O)(=O)c2cccc([N+](=O)[O-])c2)n(C)c1C', 5.20),
  ('Cc1c(C(C)(C)C)s/c(=N\S(=O)(=O)c2cc(Cl)ccc2O)n1C', 6.00),
  ('Cc1cc(OCCCNC(N)=O)ccc1NC(=O)COc1ccc(Cl)cc1C(=O)c1cc(F)cc(C(F)(F)F)c1', 8.40),
  ('Cc1cc(C#N)cc(C(=O)c2cc(Cl)ccc2OCC(=O)Nc2cnc(S(N)(=O)=O)cc2C)c1', 8.15),
  ('CC(C)c1s/c(=N\S(=O)(=O)c2cc(Cl)ccc2O)n(C)c1Cl', 6.80);

----------
- measurementTarget: UniProt Q9WJQ2
- methodDescription: Inhibition of HIV1 reverse transcriptase K103N mutant by HeLa-MAGI assay
attributeMeasured: IC50 (µM)

INSERT INTO results (compound, assayvalue) VALUES
  ('Cc1c(C(C)(C)C)s/c(=N\S(=O)(=O)c2cccc([N+](=O)[O-])c2)n1C [3-substituted thiazolidene deriv. 17a]', 12.9);

----------
- methodDescription: Inhibition of HIV1 reverse transcriptase K103N mutant by HeLa-MAGI assay
Flag rule - IC50 less than 6 nM flags 1.0; the remaining entries get 0.0.

INSERT INTO measurements (cpdsmiles, class) VALUES
  ('C=Cc1s/c(=N\S(=O)(=O)c2cccc([N+](=O)[O-])c2)n(C)c1C', 0.0),
  ('Cc1cc(S(N)(=O)=O)ccc1NC(=O)COc1ccc(Cl)cc1C(=O)c1cc(C#N)cc(C(F)(F)F)c1', 1.0),
  ('Cc1cc(S(N)(=O)=O)ccc1NC(=O)COc1ccc(Cl)cc1C(=O)c1cc(Cl)cc(Br)c1', 0.0),
  ('COCCOCCOc1ccc(NC(=O)COc2ccc(Cl)cc2C(=O)c2cc(F)cc(C(F)(F)F)c2)c(C)c1', 0.0),
  ('Cc1cc(NC(=O)CCN2CCOCC2)ccc1NC(=O)COc1ccc(Cl)cc1C(=O)c1cc(F)cc(F)c1', 0.0),
  ('Cc1cc(N2CC[S+]([O-])CC2)ccc1NC(=O)COc1ccc(Cl)cc1C(=O)c1cccc(C#N)c1', 1.0),
  ('Cc1cc(S(N)(=O)=O)ncc1NC(=O)COc1ccc(Cl)cc1C(=O)c1cc(Cl)cc(C#N)c1', 1.0);

----------
- methodDescription: Inhibition of HIV1 reverse transcriptase K103N mutant by HeLa-MAGI assay
Flag rule - IC50 less than 6 nM flags criterion met; the remaining entries get criterion not met.

INSERT INTO results (cpdsmiles, class) VALUES
  ('CC(C)c1s/c(=N\S(=O)(=O)c2cccc([N+](=O)[O-])c2)n(C)c1C(F)(F)F', 'criterion not met'),
  ('Cc1cc(C#N)cc(C(=O)c2cc(Cl)ccc2OCC(=O)Nc2ccc(S(N)(=O)=O)cc2C)c1', 'criterion met'),
  ('Cc1cc(N2CC[S+]([O-])CC2)ccc1NC(=O)COc1ccc(Cl)cc1C(=O)c1ccccc1', 'criterion not met'),
  ('Cc1c(C(C)C)s/c(=N\S(=O)(=O)c2cc(Br)ccc2C#N)n1C', 'criterion not met'),
  ('CCN(CC)CCCNc1ccc(NC(=O)COc2ccc(Cl)cc2C(=O)c2cc(F)cc(F)c2)c(C)c1', 'criterion not met'),
  ('Cc1cc(C)cc(C(=O)c2cc(Cl)ccc2OCC(=O)Nc2ccc(S(N)(=O)=O)cc2C)c1', 'criterion met');
